measure_name: melting point

compound: CCNCC1CCN(c2c(F)c(F)c3c(=O)c(C(=O)O)cn(C4CC4)c3c2F)C1 (stereo not given)
melting point: 247 to 248 °C

Record summary for C#CCOc1cc(Cl)cc(Cl)c1OCC#C : reported melting point = 61 to 63 °C

Record summary for CCCCCCCCCCCCS(=O)(=O)CCOc1ccc(C/C=C(\OC(C)=O)C(F)(F)F)cc1 : reported melting point = 48 to 49 °C

Record summary for CN1CCc2nc3cc(Cl)ccc3c(-c3cccs3)c2C1 : reported melting point = 131 to 132 °C

---

Each entry below lists one item and its recorded melting point value.

Here is how some compounds turned out for melting point.
compound: CC12CCC(O)CC1CCC1C2CCC2(C)C(=O)CCC12O (stereo not given)
measurement: 214 to 217 °C

compound: Cc1cccc(C)c1NC(=O)C=CC(=O)c1ccc(Cl)c(Cl)c1
measurement: 213 to 215 °C

compound: CCOC(=O)c1c(-c2ccc(CBr)cc2)nc2ccccn12
measurement: 131 °C

compound: CN(Cc1cc(C(=O)OC(C)(C)C)ccc1[N+](=O)[O-])C(=O)OC(C)(C)C
measurement: 56 to 58 °C

compound: CCOC(=O)CC(C#N)(CC(=O)OCC)c1ccc(Cl)c(Cl)c1
measurement: 69 to 71 °C

Continue with the next compound.
Record summary for O=C(O)c1cccc(Oc2ncc(C(F)(F)F)cc2Cl)c1 : reported melting point = 158 °C

---

Each entry below lists one item and its recorded melting point value.

Here is how some molecules turned out for melting point.
molecule: O=C(O)CCCCCCCCCCOc1cc(OCCCCCCCCCCC(=O)O)cc(C(=O)N(CC(=O)O)CC(=O)O)c1
melting point: 134 to 140 °C

molecule: CCOC(=O)C(=O)Nc1ccc(C(F)(F)F)cc1C
melting point: 120 to 121 °C

molecule: Fc1cccc(-c2nc3cnccc3[nH]2)c1
melting point: 290 to 291 °C

Record summary for CCOC(=O)NC(=CC(=O)[C@H](Cc1ccccc1)N(Cc1ccccc1)Cc1ccccc1)Cc1ccccc1 : reported melting point = 91 to 93 °C

Record summary for CCCCCCCCc1cnc(-c2ccc(OCC(C)OCCC)cc2)nc1 (configuration not stated) : reported melting point = 37.4 °C

---

measure_name: melting point

Here is how some compounds turned out for melting point.
compound: O=c1c2c(Cl)cc(Cl)cc2n(Cc2ccccc2)c(=O)n1Cc1ccccc1
melting point: 104 to 106 °C
--
compound: O=S(=O)(Nc1cccnc1Nc1ccccc1)c1ccc(Cl)cc1
melting point: 186 to 188 °C
--
compound: Oc1ccccc1N1c2ccccc2Sc2ccccc21
melting point: 192 to 200 °C
--
compound: CCOc1nn(-c2ccc(C(F)(F)F)cn2)cc1CCCOc1ccccc1CCC(=O)O
melting point: 93 to 94 °C
--
compound: CCCn1c(=O)c2[nH]c(/C=C/c3cc(OC)c(OCc4ccccc4)c(OC)c3)nc2n(CCC)c1=O
melting point: 221 °C
--
compound: CCCCc1[nH]c2ccc(OC)cc2c1C(=O)c1ccc(OC)cc1
melting point: 170 °C
--
compound: COc1ccc(C(=CC(=O)N2CCOCC2)c2ccc([N+](=O)[O-])cc2)cc1OC
melting point: 149 to 163 °C
--
compound: Oc1ncnc2c1cnn2C1OC(COCc2ccccc2)C(OCc2ccccc2)C1OCc1ccccc1 (stereo not given)
melting point: 204 °C

Record summary for S=C(Nc1ccc(Nc2ccccc2)cc1)Nc1ccc(Nc2ccccc2)cc1 : reported melting point = 164 to 171 °C

---

measure_name: melting point

Here is how some compounds turned out for melting point.
compound: CCCCCNC(=O)CC(c1ccc(OC)c(OC)c1)N1C(=O)c2ccccc2C1=O (stereo not given)
measurement: 140 to 142 °C

compound: Cc1cc(C(O)(C(F)(F)F)C(F)(F)F)cc(C)c1NCCN(C)C
measurement: 112 to 115 °C

compound: COc1ccccc1N1CCN(CCNc2ccccc2[N+](=O)[O-])CC1
measurement: 117 to 118 °C

compound: CCCC1(c2ccccc2Cl)C(=O)Nc2ccc(OCC)cc21 (stereo not given)
measurement: 136 °C

Record summary for CCCC(=O)C(=O)NCC(=O)c1cccnc1 : reported melting point = 80 to 82 °C

Record summary for CC(C)n1cc(C(=O)C(F)(F)F)c2ccc(C(F)(F)F)cc21 : reported melting point = 92 to 93 °C

---

measure_name: melting point

molecule: COC[C@@H](O)[C@@H](O)[C@H](OC)[C@@H](O)C=O
melting point: 113 to 115 °C

molecule: COc1ccc(-c2cncc(C#N)c2N(C)c2ccc3[nH]ccc3c2)cc1OC
melting point: 224 to 226 °C

molecule: Cc1c(C)c2c(c(C)c1NC(=O)NCCN(C)C)C(c1ccc(C(C)C)cc1)CO2 (stereo not given)
melting point: 133 to 134 °C

molecule: O=C(CN1CN(OC(F)(F)F)C=N1)c1ccccc1
melting point: 98 to 101 °C

molecule: CS(=O)(=O)c1nc2ccccn2c1S(N)(=O)=O
melting point: 214 to 216 °C

molecule: O=C(O)c1ccccc1CNC(=O)C1Cc2ccccc2N1S(=O)(=O)c1ccc(-c2cccc(C(F)(F)F)c2)cc1 (stereo not given)
melting point: 118 °C

molecule: Cc1nc(Nc2ccc(F)cc2)nc(Br)c1C
melting point: 123 °C

molecule: COC(=O)CCC1=NC=C(c2ccc3c(c2)NC(=O)CO3)C(c2ccccc2)S1 (stereo not given)
melting point: 119 to 121 °C

molecule: COC(=O)c1c(C(=O)OC)c2sc3ccccc3n2c1C
melting point: 143 to 144 °C

Record summary for CCOC(=O)C(=O)Nc1cccc(F)c1O : reported melting point = 168 °C

---

Each entry below lists one item and its recorded melting point value.

compound: CON=C1CCC1N1CCC(Cc2ccc(Cl)cc2)CC1 (stereo unspecified)
melting point: 127 to 128 °C
//
compound: Cc1cnc(Cl)c(C(=O)O)c1
melting point: 180 °C
//
compound: CC(=O)Nc1c(C(=O)c2cc(Cl)ccn2)[nH]c2cc(Cl)ccc12
melting point: 201 to 202 °C
//
compound: CCCc1c(Cc2ccc(-c3ccccc3C#N)cc2)c(O)nc2ccnn12
melting point: 236 °C
//
compound: Cc1cc(C)c(-c2nc3ccc(C(=O)c4ccccc4)cc3[nH]2)[nH]1
melting point: 225 to 229 °C

Continue with the next compound.
Record summary for CNC(=NC#N)NCCSCc1cc(C)c(CN(C)C)o1 : reported melting point = 86 to 88 °C

---

Each entry below lists one item and its recorded melting point value.

Here is how some compounds turned out for melting point.
compound: O=C1C(=O)c2ccccc2C2=C1SCC1(CCN(CC3CCCO3)CC1)O2 (stereo not given)
measure_name: melting point
measurement: 155 to 159 °C
--
compound: COc1ccc2ccc(I)cc2c1
measure_name: melting point
measurement: 116 °C
--
compound: O=C(c1ccc([N+](=O)[O-])[nH]1)C(Cl)(Cl)Cl
measure_name: melting point
measurement: 160 to 163 °C

Record summary for Cc1c(-c2ccccc2)oc2c(C(=O)O)cc(Br)cc2c1=O : reported melting point = 287 to 289 °C

Record summary for CS(=O)(=O)N1CN(C(=O)c2c(F)cccc2F)C(=O)N(c2ccc(Cl)cc2)C1 : reported melting point = 178 °C

Record summary for COC(=O)CCC(C)C(=O)N1CCC[C@H]1C(=O)O (stereo not given in full) : reported melting point = 174 to 175 °C

---

Each entry below lists one item and its recorded melting point value.

molecule: CC(CNc1ccc(C(=O)O)cc1)Oc1ccc(F)cc1 (centres undefined)
measurement: 171 to 172 °C
//
molecule: COc1ccc2c(c1)CCC1C2CCC2(C)C(NCCCCCCNc3ccc([N+](=O)[O-])cc3[N+](=O)[O-])CCC12 (centres undefined)
measurement: 90 to 92 °C
//
molecule: O=C(COc1ccc2c(-c3ccccc3F)noc2c1Br)NO
measurement: 165 to 167 °C

Record summary for CCOC(=O)C1=C(C)NC(C)=C(C(=O)OCC)C1c1ccccc1S(C)=O (centres undefined) : reported melting point = 232 to 233 °C

Record summary for COC(=O)COc1cccc(CNC(=O)C2Cc3ccccc3N2S(=O)(=O)c2ccc(-c3cccc(C(F)(F)F)c3)cc2)c1 (centres undefined) : reported melting point = 50 °C

Record summary for CN(C)Cc1ccc(CSCCNc2[nH]ccc2[N+](=O)[O-])o1 : reported melting point = 67 °C

Record summary for Cn1c2cc(OCCO)ccc2c2c3c(c(-c4ccccc4Cl)cc21)C(=O)NC3=O : reported melting point = 309 to 312 °C

Record summary for CCOC(=O)c1c(N2CCN(C(=O)c3cccs3)CC2)c2cc(F)cnc2n(Cc2ccccc2)c1=O : reported melting point = 130 °C

Record summary for CC(C)(C)c1ccc2c(c1)OC(C(F)(F)F)C(C(=O)O)=C2 (centres undefined) : reported melting point = 166 to 167 °C
